Measurement target: T1, human HIF-2α PAS-B (240-350), recombinant, His-tagged (human, UniProt Q99814 240-350, labelled with Monolith NT-647 dye for MST)
T1 construct: range 240-350; Expressed in E. coli BL21(DE3)-Rosetta from pET28a; also called PAS-B domain of HIF-2α; not shown: His tag from pET28a vector (BamHI/SacI cloning)
T1 sequence (Q99814 240-350): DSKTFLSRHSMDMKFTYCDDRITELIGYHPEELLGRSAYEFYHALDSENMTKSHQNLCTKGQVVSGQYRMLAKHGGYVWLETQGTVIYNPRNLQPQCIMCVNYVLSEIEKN
Measurement notes: MST, peptide titrated against labelled HIF-2α PAS-B [bottom panel]
Measurement type: Kd (µM)
Write the number in µM without appending the unit.

Q. Need Kd, item CRVIIF (head-to-tail cyclic (cyclo-), also called CRVIIF; cyclic peptide #3) [cyclo-cys arg val ile ile phe]
A. 123
